ASSAYED SYSTEM: T1, EBV gp350 expressed on the surface of stably transfected CHO cells (Epstein-Barr virus, UniProt P03200 1-907)
T1 construct: also called native gp350; gp350 expressing CHO cells
T1 sequence: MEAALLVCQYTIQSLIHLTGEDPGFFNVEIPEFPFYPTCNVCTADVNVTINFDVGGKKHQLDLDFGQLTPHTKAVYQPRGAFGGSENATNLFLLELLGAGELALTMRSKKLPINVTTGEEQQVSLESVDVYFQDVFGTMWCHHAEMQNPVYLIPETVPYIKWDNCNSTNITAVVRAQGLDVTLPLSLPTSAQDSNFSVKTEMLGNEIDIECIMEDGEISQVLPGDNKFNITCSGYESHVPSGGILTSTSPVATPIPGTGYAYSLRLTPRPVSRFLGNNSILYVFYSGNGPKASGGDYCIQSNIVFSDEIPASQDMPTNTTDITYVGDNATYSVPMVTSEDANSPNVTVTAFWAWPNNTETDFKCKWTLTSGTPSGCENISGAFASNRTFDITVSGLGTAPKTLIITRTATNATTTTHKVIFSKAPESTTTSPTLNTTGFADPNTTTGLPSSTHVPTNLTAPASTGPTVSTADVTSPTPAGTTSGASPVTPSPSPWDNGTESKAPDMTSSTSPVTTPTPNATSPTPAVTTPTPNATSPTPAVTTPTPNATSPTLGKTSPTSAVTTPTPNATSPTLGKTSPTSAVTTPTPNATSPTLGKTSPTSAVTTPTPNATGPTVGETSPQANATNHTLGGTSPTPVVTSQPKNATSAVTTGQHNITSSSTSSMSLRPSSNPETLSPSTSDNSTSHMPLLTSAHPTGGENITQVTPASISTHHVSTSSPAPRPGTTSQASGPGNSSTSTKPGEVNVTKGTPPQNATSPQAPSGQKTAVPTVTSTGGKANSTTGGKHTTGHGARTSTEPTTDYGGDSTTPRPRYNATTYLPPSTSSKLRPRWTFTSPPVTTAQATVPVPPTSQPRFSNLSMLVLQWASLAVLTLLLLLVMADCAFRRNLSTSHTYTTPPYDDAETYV
ASSAY REMARKS: cell competition (flow), unlabeled 500 µg/ml; competitor: biotinylated m72A1 1 µg/ml
Catalogue of binders with associated % inhibition of biotinylated nAbs
Field format: number, assumed %, no unit text.

Observe how each entry below is paired with its result.
Incoming: Using the record for HB1 (antibody, V domains shown) VH: PGLVAPSQSLSITCTVSGFLLTTYGVHWVRQPPGKGLEWLGVIWAGGSTNYNSALMSRLSINKDISKSQVFLKMNSLQTDDTAMYYCTRDRGYGYLYAMDYWGQGTSVTVSS VL: KFMSTSVGDRVSVTCKASQNVGTNVAWYQQKPGQSPKALIYSTSSRYTGVPDRFAGSGSGTDYTLTISNVQSEDLAEYFCQQYNTYPYTFGGGTRLDIKR , report its % inhibition of biotinylated nAbs.
Outgoing: 91

Incoming: Further, for murine 72A1 (m72A1), anti-EBV gp350 neutralizing antibody from hybridoma HB168 (antibody, V domains shown, also called nAb-72A1; mouse 72A1) VH: EVQLQQSGPELVKPGTSMKISCKASGSSFTDYTMNWMKQSHGKNLEWIGLINPYNGGTRYNQKFKGKATLTLDKSSSTAYMEVLSLTSEDSAVYYCAGGLRRVNWFAYWGQGTLVSVSA VL: QAVLTQESALTTSPGETVTLTCRSSTGAVTTSNYANWVQEKPDHLFTGLIGGTNNRVPGVPARFSGSLIGDKAALTITGAQTEDEAIYFCVLWHSNHWVFGGGTKLTVL ?
Outgoing: 91

Incoming: Another binder to look at: HB20 (antibody, V domains shown) VH: ELVKPGASVKLSCKASGYTFTSYWIQWVKQRPGQGLEWIGEINPTNGHTNYNEKFKTKATLTVDKSSSTAYMRLSSLTSEDSAVYYCARNLYYYGRPDYWGQGTSVTVSS VL: SSLSASLGDRVTISCRASQDIGNYLNWYQQKPDGTVKLLIYYTSRLHSGVPSRFSGSGSGTDYSLTISNLEQEDIATYFCQQGNALPPTFGGGTKLEIKR
Outgoing: 96

Could you now look at the following binder, please?
Incoming: I have this binder here, HB11 (antibody, V domains shown) VH: PSLVKPSQTLSLTCSVTGDSITSGFWNWIRKFPGNKLEYMGYISYSGSTYYNPSLKSRISITRDTSKNQYYLQLNSVTTEDTATYYCARGNGGNYDWYFDVWGAGTTVTVSS VL: AIMSASLGEKVTMSCRASSSVNFMNWYQQKSDDSPKLLIYYISNLAPGVPARFSGSGSGNSYSLTISGMEGEDAATYYCQQFTSSPSWTFGGGTKLEIKR , and I need its recorded % inhibition of biotinylated nAbs.
Outgoing: 95
